# EXPERIMENT: Turbidimetric aqueous solubility
# Assay type: physicochemical
# CONDITION_DETAILS: 37 °C, pH 7.4, aqueous buffer, kinetic from dmso stock, Turbidity aqueous solubility, Estimated precipitation range, Calculated mid-range
PROPERTY_LABEL: solubility at 2 h (µM)
One number for each entry, in µM.

Recorded solubility at 2 h (compound COC(=O)C1=C(C)NC(C)=C(C(=O)OCCN(C)Cc2ccccc2)C1c1cccc([N+](=O)[O-])c1 (stereo not shown) [Nicardipine, reference compound] ): 11.5

---

# Tested on: pediatric high-grade glioma HSJD-GBM-001
# EXPERIMENT: cells
# Assay type: cell-based
# CONDITION_DETAILS: MTS, 72 h incubation, Example 11, Table 4, read-out: IC50 values of compounds
*1 amine or outer side, *2 acyl side, *3 side chain or, on linkers, in order; H or OH if unused. Where a SMILES comes first, the peptide text is derived from it. Bridges are numbered along the chain shown (N, C = ends). [ ]: non-standard residue; d: D form. The star is where a group is joined. X1 = CCc1c2c(nc3ccc(O)cc13)-c1cc3c(c(=O)n1C2)COC(=O)[C@@]3(CC)OC(=O)CCCCn1cc(CCCC(=O)NCCCOCCOCCOCCCN*)nn1; Suc = O=C(CCC(=O)[*:2])[*:1]; Dap = NC[C@H](N)C(=O)O
PROPERTY_LABEL: pIC50
Answers are plain numbers, as −log10 of the molar value.

[
  {
    "COMPOUND": "CCc1c2c(nc3ccc(O)cc13)-c1cc3c(c(=O)n1C2)COC(=O)[C@]3(O)CC [SN38, 7-ethyl-10-hydroxy-camptothecin]",
    "pIC50": 8.20
  }
]

Now for the compound whose pIC50 we want.
Recorded pIC50 (compound CCc1c2c(nc3ccc(O)cc13)-c1cc3c(c(=O)n1C2)COC(=O)[C@@]3(CC)OC(=O)CCCCn1cc(CCCC(=O)NCCCOCCOCCOCCCNC(=O)CCC(=O)N[C@H]2CNC(=O)C[C@@H](C(N)=O)NC(=O)[C@H](CC(C)C)NC(=O)[C@H](C)NC(=O)[C@H]([C@@H](C)O)NC(=O)[C@H](CCC(=O)O)NC(=O)[C@@H]3CCCN3C(=O)[C@H](C)NC(=O)[C@H](CCCCN)NC2=O)nn1 [SN38-linker A-MiniAp4 (Ia)] ({X1-Suc}-[Dap]KAPETALD-NH2; lactam 1-9) ): 8.19
